Target: AtHb3 (Arabidopsis thaliana)
Construct: recombinant in E. coli BL21(DE3), N-terminal 8xHis-MBP tag, TEV cleaved; class 3 truncated Hb; ferric (met) heme form
Sequence (Q67XG0 whole entry, the tested form may be a part): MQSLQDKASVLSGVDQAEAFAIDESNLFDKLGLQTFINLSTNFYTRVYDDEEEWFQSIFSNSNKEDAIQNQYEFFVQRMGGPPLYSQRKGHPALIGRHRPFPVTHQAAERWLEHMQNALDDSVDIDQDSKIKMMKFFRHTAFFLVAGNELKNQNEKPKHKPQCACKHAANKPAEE
Experiment: UV-vis titration of the Soret band at […] nm
Value Kind: Kd (mM)
Give the number; mM is assumed, so skip it.

Kindly note the recorded Kd for `O=NO` , which is 1.5
